- protocol summary: Stability in human plasma after 4 days by analytical RP-HPLC
- Assay type: ADME, cell-free
- setup conditions: read-out: Stability
Where a SMILES comes first, the peptide text is derived from it. [ ]: non-standard residue; d: D form. The star is where a group is joined. Myristoyl = CCCCCCCCCCCCCC(=O)*; 3Abz = Nc1cccc(C(=O)O)c1; Orn = NCCC[CH](N)C(=O)O
measure: remaining at 96 h (%)
Use % as the unit, but write only the number.

Task: Suppose we examine the molecule CCCCCCCCCCCCCC(=O)Nc1cccc(C(=O)NC(CCCN)C(=O)NC(CCCN)C(=O)NC(CCCN)C(=O)NC(CCCN)C(N)=O)c1 (stereo unspecified) ({Myristoyl-3Abz}-[Orn][Orn][Orn][Orn]-NH2; configuration not given here) ; what remaining at 96 h value has been reported?
Result: 76

====

- Test system: Bacillus subtilis
- protocol summary: Antibacterial activity against Bacillus subtilis MTCC 2763 after 18 hrs by micro dilution broth assay
- Assay type: functional
- setup conditions: MTCC 2763, 18 h
Where a SMILES comes first, the peptide text is derived from it. [ ]: non-standard residue; d: D form. The star is where a group is joined. Stearoyl = CCCCCCCCCCCCCCCCCC(=O)*; Palmitoyl = CCCCCCCCCCCCCCCC(=O)*; Lauroyl = CCCCCCCCCCCC(=O)*; 3Abz = Nc1cccc(C(=O)O)c1; Orn = NCCC[CH](N)C(=O)O
Hi there, I'd appreciate the recorded MIC for every entry that follows.
Record the value in µg/mL, omitting the unit from your answer.

Task: # input compound: `O=C(O)c1cn(C2CC2)c2cc(N3CCNCC3)c(F)cc2c1=O` ; wanted: its MIC
Result: 0.5

Task: Using the record for CCCCCCCCCCCCCCCC(=O)Nc1cccc(C(=O)NC(CCCN)C(=O)NC(CCCN)C(=O)NC(CCCN)C(N)=O)c1 (stereo not given) , report its MIC.
Result: 20

Task: Any idea what its MIC is? The compound is CCCCCCCCCCCC(=O)Nc1cccc(C(=O)NC(CCCN)C(=O)NC(CCCN)C(=O)NC(CCCN)C(=O)NC(CCCN)C(N)=O)c1 (stereo not given) ({Lauroyl-3Abz}-[Orn][Orn][Orn][Orn]-NH2; configuration not given here)
Result: 15.5

Task: # query: MIC of entry CCCCCCCCCCCCCCCCCC(=O)Nc1cccc(C(=O)NC(CCCN)C(=O)NC(CCCN)C(=O)NC(CCCN)C(=O)NC(CCCN)C(N)=O)c1 (stereo not given) ({Stearoyl-3Abz}-[Orn][Orn][Orn][Orn]-NH2; configuration not given here)
Result: 12.5

Task: So what's the measured MIC for this one? CCCCCCCCCCCCCCCC(=O)Nc1cccc(C(=O)NC(CCCN)C(=O)NC(CCCN)C(=O)NC(CCCN)C(=O)NC(CCCN)C(N)=O)c1 (stereo not given) ({Palmitoyl-3Abz}-[Orn][Orn][Orn][Orn]-NH2; configuration not given here)
Result: 20

====

- protocol summary: Therapeutic index, ratio of HC50 for human RBCs to MIC for Escherichia coli MTCC 0723
- setup conditions: red blood cells (RBCs), read-out: TI
Where a SMILES comes first, the peptide text is derived from it. [ ]: non-standard residue; d: D form. The star is where a group is joined. Stearoyl = CCCCCCCCCCCCCCCCCC(=O)*; Myristoyl = CCCCCCCCCCCCCC(=O)*; Lauroyl = CCCCCCCCCCCC(=O)*; 3Abz = Nc1cccc(C(=O)O)c1; Orn = NCCC[CH](N)C(=O)O
Would you mind labelling by selectivity ratio? At or over 100 is Fulfilled, under is Not fulfilled.

Task: Entry CCCCCCCCCCCCCCCC(=O)Nc1cccc(C(=O)NC(CCCN)C(=O)NC(CCCN)C(=O)NC(CCCN)C(N)=O)c1 (stereo not given) : is its selectivity ratio no less than 100?
Result: Fulfilled

Task: Is reported selectivity ratio greater than or equal to 100 here: CCCCCCCCCCCCCCCCCC(=O)Nc1cccc(C(=O)NC(CCCN)C(=O)NC(CCCN)C(=O)NC(CCCN)C(=O)NC(CCCN)C(N)=O)c1 (stereo not given) ({Stearoyl-3Abz}-[Orn][Orn][Orn][Orn]-NH2; configuration not given here)
Result: Not fulfilled

Task: Check this molecule for selectivity ratio at or above 100: CCCCCCCCCCCCCC(=O)Nc1cccc(C(=O)NC(CCCN)C(=O)NC(CCCN)C(=O)NC(CCCN)C(=O)NC(CCCN)C(N)=O)c1 (stereo not given) ({Myristoyl-3Abz}-[Orn][Orn][Orn][Orn]-NH2; configuration not given here)
Result: Fulfilled

Task: Determine whether measured selectivity ratio meets or exceeds 100 for CCCCCCCCCCCC(=O)Nc1cccc(C(=O)NC(CCCN)C(=O)NC(CCCN)C(=O)NC(CCCN)C(=O)NC(CCCN)C(N)=O)c1 (stereo not given) ({Lauroyl-3Abz}-[Orn][Orn][Orn][Orn]-NH2; configuration not given here)
Result: Fulfilled

Task: Quick check: does CCCCCCCCCCCC(=O)Nc1cccc(C(=O)NC(CCCN)C(=O)NC(CCCN)C(=O)NC(CCCN)C(N)=O)c1 (stereo not given) have selectivity ratio greater than or equal to 100?
Result: Not fulfilled
